molecular target: GPR73 (prokineticin 1 receptor) (Homo sapiens, UniProt Q8TCW9); experiment: PK1 functional assay: Ca2+ mobilization screening for PK1 antagonists on the FLIPR; conditions: HEK 293 GPR73 cells; PK1 ligand preparation at its EC50; multiple values = multiple testing; read-out: Ca^2+ Mobilization IC50
Sequence (Q8TCW9 whole entry, species assumed): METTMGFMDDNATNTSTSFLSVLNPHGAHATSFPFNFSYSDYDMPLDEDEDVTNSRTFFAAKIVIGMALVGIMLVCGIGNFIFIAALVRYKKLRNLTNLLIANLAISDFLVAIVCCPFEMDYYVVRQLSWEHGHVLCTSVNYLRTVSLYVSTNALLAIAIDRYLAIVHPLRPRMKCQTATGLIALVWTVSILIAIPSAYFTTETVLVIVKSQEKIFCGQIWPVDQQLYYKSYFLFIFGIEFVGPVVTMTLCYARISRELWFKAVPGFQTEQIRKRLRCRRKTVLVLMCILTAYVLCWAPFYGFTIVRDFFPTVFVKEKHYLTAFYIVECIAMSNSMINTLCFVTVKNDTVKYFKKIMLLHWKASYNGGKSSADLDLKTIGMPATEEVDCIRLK
observable: log10 IC50 (log10 of the value in nM)
Kindly note that the scale is log10 and the underlying IC50 is in nM.

- compound: "COc1ccc(Cn2c(NCc3cccnc3N)nc(=O)n(Cc3ccc4occc4c3)c2=O)cc1 [Cpd 134]"
  tested.target: "GPR73 (prokineticin 1 receptor) (Homo sapiens, UniProt Q8TCW9)"
  observable: "log10 IC50"
  experimental.result: 2.35
- compound: "COc1ccc(Cn2c(NCc3c(OC)ccnc3N)nc(=O)n(Cc3ccc(OC)cc3)c2=O)cc1 [Cpd 58]"
  tested.target: "GPR73 (prokineticin 1 receptor) (Homo sapiens, UniProt Q8TCW9)"
  observable: "log10 IC50"
  experimental.result: 1.95
- compound: "COc1ccc(Cn2c(=O)nc(NCc3cccnc3N)n(Cc3ccc4[nH]ccc4c3)c2=O)cc1 [Cpd 127]"
  tested.target: "GPR73 (prokineticin 1 receptor) (Homo sapiens, UniProt Q8TCW9)"
  observable: "log10 IC50"
  experimental.result: 2.78

Quick one: log10 IC50 for COc1ccc(Cn2c(=O)nc(NCc3cccnc3N)n(Cc3ccc(C(N)=O)cc3)c2=O)cc1 [Cpd 52] ?
2.99

Please give the result for COc1ccc(Cn2c(NCc3cccn4ccnc34)nc(=O)n(Cc3ccc(OC)cc3)c2=O)cc1 [Cpd 188] too.
2.76

Next compound up: COc1ccc(Cn2c(NCc3cnc(C)cc3C)nc(=O)n(Cc3cccc(OC)c3)c2=O)cc1 [Cpd 111]
3.90

Also need COc1ccc(Cn2c(NCc3cnc(C)cc3C)nc(=O)n(Cc3ccc4sccc4c3)c2=O)cc1 [Cpd 146] , thanks.
3.33

Then COc1ccc(Cn2c(NCCc3cccnc3N)nc(=O)n(Cc3ccc(F)cc3)c2=O)cc1 [Cpd 10] ?
3.10

Input COC(=O)c1ccc(Cn2c(=O)nc(NCc3cnc(C)cc3C)n(Cc3ccc(OC(F)F)cc3)c2=O)cc1 [Cpd 165]
3.79

Would you mind doing CCOc1ccc(Cn2c(=O)nc(NCc3cnc(C)cc3C)n(Cc3ccc(OC)cc3)c2=O)cc1 [Cpd 107] as well?
2.94

* * *

target: UniProtKB Q8TCW9; test: PK1 functional assay: Ca2+ mobilization screening for PK1 antagonists on the FLIPR; details: HEK 293 GPR73 cells; PK1 ligand preparation at its EC50; multiple values = multiple testing; read-out: Ca^2+ Mobilization IC50
observable: IC50 (nM)
Kindly provide the numeric value in nM only, without the unit symbol.

The cases that follow already have their IC50 on record.
- compound: "COC(=O)CCCn1c(NCc2cnc(C)cc2C)nc(=O)n(Cc2ccc(OC)cc2)c1=O [Cpd 153]"
  u: "nM"
  experimental.result: 703
- compound: "COc1ccc(Cn2c(NCc3cccnc3N)nc(=O)n(Cc3ccc4[nH]ccc4c3)c2=O)cc1 [Cpd 230]"
  u: "nM"
  experimental.result: 2750
- compound: "Cc1cc(C)c(CNc2nc(=O)n(CCOc3ccc(F)cc3)c(=O)n2Cc2ccc(OC(F)F)cc2)cn1 [Cpd 167]"
  u: "nM"
  experimental.result: 2620
- compound: "CCCNc1ncccc1CNc1nc(=O)n(Cc2ccc(F)cc2)c(=O)n1Cc1ccc(OC)cc1 [Cpd 15]"
  u: "nM"
  experimental.result: 327
- compound: "COc1ccc(Cn2c(NCc3cccnc3N)nc(=O)n(Cc3ccc(Cl)cc3)c2=O)cc1 [Cpd 231]"
  u: "nM"
  experimental.result: 245

Name the reported IC50 value associated with the compound COc1ccc(Cn2c(NCc3cccnc3N)nc(=O)n(Cc3ccc(C#N)cc3)c2=O)cc1 [Cpd 44]
2020

Same read-out for COc1ccc(Cn2c(NCc3cnc(C)cc3C)nc(=O)n(Cc3ccc4snnc4c3)c2=O)cc1 [Cpd 217] ?
1010

Next compound: Cc1cc(C)c(CNc2nc(=O)n(Cc3ccc(F)cc3)c(=O)n2Cc2ccc(OC(F)F)cc2)cn1 [Cpd 160]
628

* * *

biological target: GPR73 (prokineticin 1 receptor) (Homo sapiens, UniProt Q8TCW9); construct: expressed in transfected cells; host or cells: HEK 293; assay: PK1 functional assay: Ca2+ mobilization screening for PK1 antagonists on the FLIPR; assay type: cell-based; details: HEK293, 10 μM compound; HEK 293 GPR73 cells; multiple values = multiple testing; read-out: Ca^2+ Mobilization % Inh @ 10 μM
observable: inhibition at 10 µM (%)
Give a bare numeral; the unit % is implied.

Recorded results for 5 compounds are shown here.
- compound: "COc1ccc(Cn2c(NCc3ccc4c(n3)NCCC4)nc(=O)n(Cc3ccc(F)cc3)c2=O)cc1 [Cpd 21]"
  experimental.result: 85
- compound: "COCCNc1ncccc1CNc1nc(=O)n(CC2COc3ccccc3O2)c(=O)n1Cc1ccc(OC)cc1 (centres unmarked) [Cpd 73]"
  experimental.result: 58
- compound: "CCCCCCn1c(NCc2cccnc2N)nc(=O)n(Cc2ccc(OC)cc2)c1=O [Cpd 79]"
  experimental.result: 85
- compound: "COc1ccc(Cn2c(NCc3c(COCc4ccccc4)cc(C)nc3N)nc(=O)n(Cc3ccc(OC)cc3)c2=O)cc1 [Cpd 250]"
  experimental.result: 48
- compound: "COc1ccc(Cn2c(OCc3c(C)cc(C)nc3N)cc(=O)n(Cc3ccc(OC)cc3)c2=O)cc1 [Cpd 202]"
  experimental.result: 70

Give the reported inhibition at 10 µM for COc1ccc(Cn2c(NCc3cccnc3N3CCOCC3)nc(=O)n(Cc3ccc(F)cc3)c2=O)cc1 [Cpd 17] (system: GPR73 (prokineticin 1 receptor) (Homo sapiens, UniProt Q8TCW9)).
73

Also check COc1ccc(Cn2c(NCc3cc(C(F)(F)F)ccn3)nc(=O)n(Cc3ccc(OC)cc3)c2=O)cc1 [Cpd 237]
69

Item: Cn1nnc2cc(Cn3c(=O)nc(NCc4cccnc4N)n(Cc4ccc5c(c4)CCO5)c3=O)ccc21 [Cpd 244]
94

* * *

molecular target: GPR73 (prokineticin 1 receptor) (Homo sapiens, UniProt Q8TCW9); assay: PK1 functional assay: Ca2+ mobilization screening for PK1 antagonists on the FLIPR; conditions: HEK 293 GPR73 cells; PK1 ligand preparation at its EC50; multiple values = multiple testing; read-out: Ca^2+ Mobilization IC50
pIC50: −log10 of the molar value.
Decision: pIC50 >= 6 yields MET, all other cases yield NOT MET.

- compound: "COc1ccc(Cn2c(NCc3cnc(C)cc3C)nc(=O)n(Cc3ccccc3OC)c2=O)cc1 [Cpd 144]"
  tested.target: "GPR73 (prokineticin 1 receptor) (Homo sapiens, UniProt Q8TCW9)"
  cat: "NOT MET"
- compound: "COc1ccc(Cn2c(CNCc3cccnc3N)cc(=O)n(Cc3ccc(OC)cc3)c2=O)cc1 [Cpd 7]"
  tested.target: "GPR73 (prokineticin 1 receptor) (Homo sapiens, UniProt Q8TCW9)"
  cat: "NOT MET"
- compound: "COc1ccc(Cn2c(=O)nc(NCc3cnc(C)cc3C)n(CC3CCC(OC)CC3)c2=O)cc1 (centres unmarked) [Cpd 150]"
  tested.target: "GPR73 (prokineticin 1 receptor) (Homo sapiens, UniProt Q8TCW9)"
  cat: "MET"

Pending compound:
Record COc1ccc(Cn2c(NCc3cnc(C)cc3C)nc(=O)n(Cc3ccc4occc4c3)c2=O)cc1 [Cpd 133] ; criterion: pIC50 no lower than 6. Met?
MET

* * *

target: GPR73 (prokineticin 1 receptor) (Homo sapiens); construct: expressed in transfected cells; host or cells: HEK 293; assay: PK1 functional assay: Ca2+ mobilization screening for PK1 antagonists on the FLIPR; format: cell-based; conditions: HEK293, 10 μM compound; HEK 293 GPR73 cells; multiple values = multiple testing; read-out: Ca^2+ Mobilization % Inh @ 10 μM
This listing pairs molecules with measured inhibition at 10 µM.
Your answer is read as %, so omit the unit and give the number.

These recorded examples may help you get a feel for the data.
- compound.string: "COc1ccc(Cn2c(NCc3cccnc3)nc(=O)n(Cc3ccc(Cl)c(Cl)c3)c2=O)cc1"
  tested.target: "GPR73 (prokineticin 1 receptor) (Homo sapiens)"
  u: "%"
  inhibition at 10 µM: 47
- compound.string: "COCCCCCn1c(NCc2cccnc2N)nc(=O)n(Cc2ccc(OC)cc2)c1=O"
  tested.target: "GPR73 (prokineticin 1 receptor) (Homo sapiens)"
  u: "%"
  inhibition at 10 µM: 94
- compound.string: "COc1ccc(Cn2c(=O)nc(NCc3c(C)cc(C)nc3N)n(Cc3cccc4[nH]ccc34)c2=O)cc1"
  tested.target: "GPR73 (prokineticin 1 receptor) (Homo sapiens)"
  u: "%"
  inhibition at 10 µM: 98

Pending molecule:
Data request, read-out inhibition at 10 µM, for COC(=O)c1ccc(Cn2c(=O)nc(NCc3cnc(C)cc3C)n(Cc3ccc(OC)cc3)c2=O)cc1
48

Values compiled from patent US20080287445A1.
